Source: patent US20260035459A1

- Subject of test: T1, soluble recombinant IGLV3-21^R110-harboring B-cell receptor, monomeric human IgM (170.5 kDa) (human)
- T1 construct: Made in 293-HEK cells by transient expression and used as the analyte in BLI; also called soluble IGLV3-21^R110 B-cell receptor; soluble form of the IGLV3-21^R110 BCR
- Protocol notes: BLI (Fortebio Octet), antibody captured by anti-human IgG Fc, soluble BCR (monomeric IgM) as analyte, 1:1 model
Recorded pKd by entry
A value of pKd is the negative decimal logarithm of a concentration given in moles per litre.

query: Can you share its pKd? I mean this binder: humanized anti-IGLV3-21^R110 antibody HC7-LC7 (antibody, human IgG1, V domains shown, Expressed in CHO cells) VH: QVQLQESGPGLVKPSETLSLTCTVSGFSLTSYGIHWIRQSPGRGLEWIGVIWRGGGTDSNAAFMSRITISRDTSKTQVSLKLGSVTAADTAIYYCARSRYDEEESMNYWGQGTSVTVSS VL: QIQLTQSPSFLSASVGDSVTITCRASGNIHSYLAWYQQKPGKAPQLLIYNAKTLADGVPSRFSGSGSGTEYTLTISSLQPEDFATYYCQHFWNTPPTFGAGTKLELK
result: 9.57

query: Can you share its pKd? I mean this binder: humanized anti-IGLV3-21^R110 antibody HC6-LC6 (antibody, human IgG1, V domains shown, VH fused to a human IgG1 constant domain and VL to a human Ig kappa constant domain; Expressed in CHO cells) VH: QVQLQESGPGLVKPSETLSLTCTVSGFSLTSYGIHWIRQSPGRGLEWIGVIWRGGGTDSNAAFMSRVTISVDTSKSQVSLKLGSVTAADTAIYYCARSRYDEEESMNYWGQGTSVTVSS VL: EIVLTQSPSSLSASVGDSVTITCRASGNIHSYLAWYQQKPGKAPKLLIYNAKTLADGVPSRFSGSGSGTQYTLTISSLQPEDFATYYCQHFWNTPPTFGAGTKLELK
result: 9.68

query: Can you share its pKd? I mean this binder: humanized anti-IGLV3-21^R110 antibody HC7-LC9 (antibody, human IgG1, V domains shown, Expressed in CHO cells) VH: QVQLQESGPGLVKPSETLSLTCTVSGFSLTSYGIHWIRQSPGRGLEWIGVIWRGGGTDSNAAFMSRITISRDTSKTQVSLKLGSVTAADTAIYYCARSRYDEEESMNYWGQGTSVTVSS VL: EIVLTQSPGTLSLSPGERATLSCRASGNIHSYLAWYQQKPGQAPRLLIYNAKTLADGIPDRFSGSGSGTDYTLTISRLEPEDFAVYYCQHFWNTPPTFGAGTKLELK
result: 9.50

// switching to the query binder
query: Can you share its pKd? I mean this binder: humanized anti-IGLV3-21^R110 antibody HC7-LC8 (antibody, human IgG1, V domains shown, Expressed in CHO cells) VH: QVQLQESGPGLVKPSETLSLTCTVSGFSLTSYGIHWIRQSPGRGLEWIGVIWRGGGTDSNAAFMSRITISRDTSKTQVSLKLGSVTAADTAIYYCARSRYDEEESMNYWGQGTSVTVSS VL: EIVLTQSPATLSLSPGERATLSCRASGNIHSYLAWYQQKPGQAPRLLIYNAKTLADGIPARFSGSGSGTDYTLTISSLEPEDFASYYCQHFWNTPPTFGAGTKLELK
result: 9.60
